target: mouse Δ1–24-L-PGDS (lipocalin type prostaglandin D synthase) (Mus musculus, UniProt O09114, H111A/W54A); experiment: surface plasmon resonance
MEASURE NAME: pKd
Give bare numbers, as −log10 of the molar value.

CCCCC[C@H](O)/C=C/[C@H]1[C@@H]2CO[C@@H](C2)[C@@H]1C/C=C\CCCC(=O)O : 4.69

// next item, pKd requested
**Q:** Which measured pKd value corresponds to "CCCCC[C@H](O)/C=C/[C@@H]1[C@@H](C/C=C\CCCC(=O)O)[C@H]2CO[C@@H]1C2" ?
**A:** 4.31

* * *

So I've got a bunch of compounds here, and I need their pKd values.
target: mouse Δ1–24-L-PGDS (lipocalin type prostaglandin D synthase) (Mus musculus, UniProt O09114, S45A); assay: surface plasmon resonance; format: binding
Give bare numbers, as −log10 of the molar value.

CCCCC[C@H](O)/C=C/[C@H]1[C@@H]2CO[C@@H](C2)[C@@H]1C/C=C\CCCC(=O)O : 4.82

**Q:** # pKd lookup, item "CCCCC[C@H](O)/C=C/[C@@H]1[C@@H](C/C=C\CCCC(=O)O)[C@H]2CO[C@@H]1C2"
**A:** 4.79

* * *

Biological target: Δ^1–24-L-PGDS + T67A/S81A (Mus musculus, UniProt O09114, S81A/T67A)
Sequence (O09114 1-189 T67A/S81A): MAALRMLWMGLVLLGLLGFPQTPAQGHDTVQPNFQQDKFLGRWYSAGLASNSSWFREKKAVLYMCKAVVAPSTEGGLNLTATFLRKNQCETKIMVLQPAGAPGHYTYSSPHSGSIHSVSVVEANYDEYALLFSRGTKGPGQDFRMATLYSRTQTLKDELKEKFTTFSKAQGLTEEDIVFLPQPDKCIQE
Assay: biochemical
MEASURE NAME: pKd
One number for each entry, as −log10 of the molar value.

CCCCC[C@H](O)/C=C/[C@@H]1[C@@H](C/C=C\CCCC(=O)O)[C@H]2CO[C@@H]1C2 : 4.71

**Q:** What does the data say about its pKd? Entry: "CCCCC[C@H](O)/C=C/[C@H]1[C@@H]2CO[C@@H](C2)[C@@H]1C/C=C\CCCC(=O)O"
**A:** 4.87

* * *

target: Δ^1–24-C65A + W54A (Mus musculus, UniProt O09114, C65A/W54A); experiment: biochemical
I'd be grateful if you could share measured Kd for these entries.
One number for each entry, in µM.

CCCCC[C@H](O)/C=C/[C@H]1[C@@H]2CO[C@@H](C2)[C@@H]1C/C=C\CCCC(=O)O : 49.2

Query compound follows.
**Q:** Hello, I am looking for reported Kd with Δ^1–24-C65A + W54A (Mus musculus, UniProt O09114, C65A/W54A) for "CCCCC[C@H](O)/C=C/[C@@H]1[C@@H](C/C=C\CCCC(=O)O)[C@H]2CO[C@@H]1C2" . Could you help?
**A:** 42.4

* * *

Target: mouse Δ1–24-L-PGDS (lipocalin type prostaglandin D synthase) (Mus musculus, UniProt O09114)
Sequence (O09114 25-189): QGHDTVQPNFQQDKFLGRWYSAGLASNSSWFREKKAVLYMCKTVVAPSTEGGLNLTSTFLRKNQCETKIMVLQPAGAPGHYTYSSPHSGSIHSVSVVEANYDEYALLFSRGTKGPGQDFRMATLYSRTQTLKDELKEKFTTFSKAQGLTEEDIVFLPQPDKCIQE
MEASURE NAME: pKd
Answers are plain numbers, as −log10 of the molar value.

CCCCC[C@H](O)/C=C/[C@H]1[C@@H]2CO[C@@H](C2)[C@@H]1C/C=C\CCCC(=O)O [U-44069] : 4.76

Lab note: next compound to report on.
**Q:** For the compound CCCCC[C@H](O)/C=C/[C@@H]1[C@@H](C/C=C\CCCC(=O)O)[C@H]2CO[C@@H]1C2 [U-46619] , what pKd is on record?
**A:** 4.64
